The reader will find reported GI50 values listed item by item below.
Test system: OVCAR-8
Test: NCI tumour cell line growth inhibition, 48 h
Calls of active or inactive are those of the source. No stated cut-off is given here; in the data, active = GI50 up to about 1.1 µM and inactive = higher.

Known results for compounds:
- COc1ccc(/C=N/NC(=O)NCCNCCO)cc1: > 100 µM (inactive)
- CC(=O)NC1C(OCc2ccccc2)OC(CO)C(O)C1OC(C)C(=O)NC(C(=O)NC(CCC(=O)NCCCCNc1c2ccccc2nc2cccc([N+](=O)[O-])c12)C(N)=O)C(C)C (stereo not given): 1.91 µM (inactive)

Looking for the measured GI50 of CC1OC(c2ccccc2)=CC(OCc2ccccc2)[C@H]1OCc1ccccc1 (stereo not given in full) , can you help? > 10 µM (inactive)

Dear colleague, I am looking for the recorded GI50 of the following compound: COc1ccc(C2=NN(C(=O)c3ccccc3)C(O)(c3cc(F)c(Cl)cc3Cl)C2)cc1OC (stereo not given) 48.4 µM (inactive)

Dear colleague, I am looking for the recorded GI50 of the following compound: Cc1cccc2c(O)c3c(O)cc(O)cc3nc12 > 10 µM (inactive)

The measurements presented in this section are drawn from ChEMBL document CHEMBL1201862.
